Tested on: Escherichia coli
ASSAY INFO: Antibacterial activity against Escherichia coli ATCC 25922 after 72 hrs by broth microdilution method
Type: functional
EXPERIMENTAL ENDPOINT: MIC (µM)

> print(dat)
                                   structure  experimental.endpoint  value.operator  assay.value
 1  CCCCCCCCCCCCCCCC[n+]1ccc(-c2cc[n+](CCCCCCCCCCCCCCCC)cc2)cc1.[I-].[I-]                    MIC               >          250
 2  CCCCCCCCCCC[n+]1ccc(-c2cc[n+](CCCCCCCCCCC)cc2)cc1.[Br-].[Br-]                    MIC               =            2
 3  CCCCCCCCCC[n+]1ccc(-c2cc[n+](CCCCCCCCCC)cc2)cc1.[I-].[I-]                    MIC               =            8
 4  CCCCCCCCCC[n+]1ccc(-c2cc[n+](CCCCCCCCCC)cc2)cc1.[Cl-].[Cl-]                    MIC               =            8
 5  CCCCCCCCCCCCCCCC[n+]1ccc(-c2cc[n+](CCCCCCCCCCCCCCCC)cc2)cc1.[Cl-].[Cl-]                    MIC               >          250
 6  CCCCCCCCCCC[n+]1ccc(-c2cc[n+](CCCCCCCCCCC)cc2)cc1.[Cl-].[Cl-]                    MIC               =            2
 7  CCCCCCCCCCCC[n+]1ccc(-c2cc[n+](CCCCCCCCCCCC)cc2)cc1.[Cl-].[Cl-]                    MIC               =            4
 8  CCCCCCCCCCC[n+]1ccc(-c2cc[n+](CCCCCCCCCCC)cc2)cc1.[I-].[I-]                    MIC               =            8
 9  CCCCCCCCCCCC[n+]1ccc(-c2cc[n+](CCCCCCCCCCCC)cc2)cc1.[I-].[I-]                    MIC               =           16
10  CCCCCCCCCCCC[n+]1ccc(-c2cc[n+](CCCCCCCCCCCC)cc2)cc1.[Br-].[Br-]                    MIC               =            4

* * *

Test system: Escherichia coli
ASSAY INFO: Antibacterial activity against Escherichia coli ATCC 25922 after 72 hrs by broth microdilution method
Format: functional
ASSAY CONTEXT: Escherichia coli, ATCC 25922, 72 h; read-out: MIC
Measured MIC by item
EXPERIMENTAL ENDPOINT: MIC (µM)

> print(dat)
                                  structure      assay.system  experimental.endpoint  units.text  value.operator  assay.value
1  CCCCCCCCCCCC[n+]1ccc(-c2cc[n+](CCCCCCCCCC)cc2)cc1  Escherichia coli                    MIC          µM               =            2
2  CCCCCCCCCCCCCCCCCCCC[n+]1ccc(-c2cc[n+](C)cc2)cc1.[Br-].[I-]  Escherichia coli                    MIC          µM               =          125
3  CCCCCCCCCCCCCCCC[n+]1ccc(-c2ccncc2)cc1.[Br-]  Escherichia coli                    MIC          µM               =           63
4  CCCCCCCCCCCCCCCC[n+]1ccc(-c2cc[n+](C)cc2)cc1.[Br-].[I-]  Escherichia coli                    MIC          µM               =           31
5  CCCCCCCCCCCCCC[n+]1ccc(-c2cc[n+](CCCCCCCC)cc2)cc1  Escherichia coli                    MIC          µM               =            2
6  CCCCCCCCCCCCCCCCCC[n+]1ccc(-c2cc[n+](CCCCCCCCCCCCCCCCCC)cc2)cc1.[Br-].[Br-]  Escherichia coli                    MIC          µM               >          250
7      CCCCCCCCCCCCCC[n+]1ccc(-c2ccncc2)cc1  Escherichia coli                    MIC          µM               =           31

* * *

Test system: Pseudomonas aeruginosa
ASSAY INFO: Antibacterial activity against Pseudomonas aeruginosa Boston 41501 ATCC 27853 after 72 hrs by broth microdilution method
Assay type: functional
ASSAY CONTEXT: Pseudomonas aeruginosa, Boston 41501 ATCC 27853, 72 h; read-out: MIC
EXPERIMENTAL ENDPOINT: MIC (µM)

> print(dat)
                                   structure  experimental.endpoint  value.operator  assay.value
 1  CCCCCCCCCCCCCCCCCC[n+]1ccc(-c2cc[n+](CCCCCCCCCCCCCCCCCC)cc2)cc1.[Br-].[Br-]                    MIC               >          250
 2  CCCCCCCCCCCCCCCCCCCC[n+]1ccc(-c2cc[n+](C)cc2)cc1.[Br-].[I-]                    MIC               >          250
 3  CCCCCCCCCCCC[n+]1ccc(-c2cc[n+](CCCCCCCCCCCC)cc2)cc1.[Br-].[Br-]                    MIC               =           31
 4  CCCCCCCCCC[n+]1ccc(-c2cc[n+](CCCCCCCCCC)cc2)cc1                    MIC               =           63
 5  CCCCCCCCCCCCCCCCCC[n+]1ccc(-c2cc[n+](C)cc2)cc1.[Br-].[I-]                    MIC               =           63
 6  CCCCCCCCCCCCCCCC[n+]1ccc(-c2cc[n+](CCCCCCCCCCCCCCCC)cc2)cc1.[Br-].[Br-]                    MIC               >          250
 7  CCCCCCCCCCCCCC[n+]1ccc(-c2cc[n+](CCCCCCCCCCCCCC)cc2)cc1.[Br-].[Br-]                    MIC               >          250
 8        CCCCCCCCCCCC[n+]1ccc(-c2ccncc2)cc1                    MIC               >          250
 9  CCCCCCCCCCCC[n+]1ccc(-c2cc[n+](CCCCCCCCCC)cc2)cc1                    MIC               =            8
10  CCCCCCCCCCCCC[n+]1ccc(-c2cc[n+](CCCCCCCCCCCCC)cc2)cc1.[Br-].[Br-]                    MIC               =          250
11  CCCCCCCCCCCCCCCC[n+]1ccc(-c2cc[n+](CCCCCC)cc2)cc1                    MIC               =           31
12  CCCCCCCCCCCCCC[n+]1ccc(-c2cc[n+](CCCCCCCC)cc2)cc1                    MIC               =           16
13  CCCCCCCCCCCCCCCCCCCC[n+]1ccc(-c2ccncc2)cc1.[Br-]                    MIC               >          250
14  CCCCCCCCCCCCCCCC[n+]1ccc(-c2cc[n+](CC)cc2)cc1.[Br-].[Br-]                    MIC               =          250
15  CCCCCCCCCCCC[n+]1ccc(-c2cc[n+](CC)cc2)cc1                    MIC               >          250
16  CCCCCCCCCCCCCCCC[n+]1ccc(-c2cc[n+](C)cc2)cc1.[Br-].[I-]                    MIC               =          125
17  CCCCCCCCCCCC[n+]1ccc(-c2cc[n+](C)cc2)cc1.[Br-].[I-]                    MIC               =          250
18  CCCCCCCCCCCCCCCCCC[n+]1ccc(-c2cc[n+](CC)cc2)cc1                    MIC               =          125
19  CCCCCCCCCCCCCCCC[n+]1ccc(-c2ccncc2)cc1.[Br-]                    MIC               >          250
